B1: TPR t1 (parent)
chain: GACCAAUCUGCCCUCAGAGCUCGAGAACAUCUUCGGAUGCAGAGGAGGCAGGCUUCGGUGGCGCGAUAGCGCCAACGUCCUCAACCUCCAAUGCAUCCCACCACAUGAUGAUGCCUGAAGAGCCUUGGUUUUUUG

Variants of: B1
ASSAY_REMARKS: polymerase ribozyme fitness, log enrichment relative to wild type (log ratio); higher = more active; in vitro selection for triplet polymerase activity
Note to self: class labels come from recorded polymerase ribozyme fitness (log ratio), ranges listed here: bottom end (below -4), midrange (-4 to below -2), top end (-2 or more)

# count of solved cases: 3
| VARIANT_STRING | CATEGORY_LABEL |
| --- | --- |
| C89G U106A G120C G122C | top end |
| C56U U96C | top end |
| A105G G120U | midrange |

Form: Item = U9C U130G ; Class = ? top end

Form: Item = G35U A75U C124A ; Class = ? bottom end

Form: Item = C49U A103C U112C ; Class = ? midrange

Form: Item = A43G C76U U109G ; Class = ? bottom end

Form: Item = A2U A5C G69A C86U ; Class = ? bottom end

Form: Item = A5G G71A ; Class = ? top end

Form: Item = G17U C72U U130A ; Class = ? midrange

Form: Item = C12A A26U G61A U131G ; Class = ? bottom end
